# Tested Target: Ubiquitin thioesterase OTUB1 (Homo sapiens, UniProt Q96FW1)
# Sequence (Q96FW1 whole entry, the tested form may be a part): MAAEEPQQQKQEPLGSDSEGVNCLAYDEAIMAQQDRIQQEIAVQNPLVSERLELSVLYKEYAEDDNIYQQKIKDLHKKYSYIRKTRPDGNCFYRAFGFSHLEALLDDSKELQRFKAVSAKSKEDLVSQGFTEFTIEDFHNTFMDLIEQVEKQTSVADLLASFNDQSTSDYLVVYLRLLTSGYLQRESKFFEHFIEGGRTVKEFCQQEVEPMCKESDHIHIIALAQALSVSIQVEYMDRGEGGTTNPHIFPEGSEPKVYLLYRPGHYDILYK
# Measurement Description: Inhibition of N-terminal His-6 tagged OTUB1 (40 to 271 residues) (unknown origin) expressed in Escherichia coli BL21 (DE3) cells at 100 nM using Ub-Rho measured after 0.5 to 3 hrs by fluorescence based Plate reader method relative to control
# Condition Description: time 0.5-3 hrs, values are per cent of control
Property Name: residual activity (%)

Examples from the recorded data:
Cc1ccccc1-c1nc2c(o1)C(=O)c1ccccc1C2=O 48.4
COc1ccccc1-c1nc2c(o1)C(=O)c1ccccc1C2=O 28.3
COc1cccc(-c2nc3c(o2)C(=O)c2ccccc2C3=O)c1F 22.4
COc1c(Cl)ccc(Cl)c1-c1nc2c(o1)C(=O)c1ccccc1C2=O 42.4
Cc1ccc(-c2nc3c(o2)C(=O)c2ccccc2C3=O)cc1 58.7
O=C1c2ccccc2C(=O)c2oc(-c3ccc(F)cc3F)nc21 19.4
COc1ccc(F)c(-c2nc3c(o2)C(=O)c2ccccc2C3=O)c1 31.2
COc1cccc(-c2nc3c(o2)C(=O)c2ccccc2C3=O)c1 30.9

(I) COc1cc(F)cc(-c2nc3c([nH]2)C(=O)c2ccccc2C3=O)c1
(II) O=C1c2ccccc2C(=O)c2oc(-c3c(F)c(F)cc(F)c3F)nc21
Smaller residual activity value? Options are I and II I would appreciate it if you answered with the label of your choice.
II
(II: 14.1%, I: 77.9%)

----------
# Tested Target: Ubiquitin carboxyl-terminal hydrolase 8 (Homo sapiens)
# Measurement Description: Inhibition of N-terminal His-6 tagged USP8 (734 to 1110 residues) (unknown origin) expressed in Escherichia coli BL21 (DE3) cells at 100 nM measured after 3 hrs by fluorescence based Plate reader method relative to control
# Condition Description: values are per cent of control
Property Name: residual activity (%)

Examples from the recorded data:
COc1ccc(Cl)c(-c2nc3c(o2)C(=O)c2ccccc2C3=O)c1 24
O=C1c2ccccc2C(=O)c2oc(-c3ccc([N+](=O)[O-])cc3)nc21 9.3

(1) COc1cc(F)cc(-c2nc3c(o2)C(=O)c2ccccc2C3=O)c1
(2) O=C1c2ccccc2C(=O)c2oc(-c3cccnc3)nc21
Smaller residual activity value? Options are 1 and 2 I would appreciate it if you answered with the label of your choice.
1
(1: 17.6%, 2: 32.2%)

(a) O=C1c2ccccc2C(=O)c2oc(-c3c(F)cccc3F)nc21
(b) O=C1c2ccccc2C(=O)c2oc(-c3ccc(F)cc3F)nc21
Smaller residual activity value? Options are a and b I would appreciate it if you answered with the label of your choice.
b
(b: 19.3%, a: 37.4%)

(a) Cc1ccc(F)c(-c2nc3c(o2)C(=O)c2ccccc2C3=O)c1F
(b) Cc1cccc(Cl)c1-c1nc2c(o1)C(=O)c1ccccc1C2=O
Recorded residual activity values differ for a and b ; which one is higher? I would appreciate it if you answered with the label of your choice.
a
(a: 30.5%, b: 15.5%)

----------
# System: NCI-H1703
# Measurement Description: Antiproliferative activity against human NCI-H1703 cells harboring wild type KRAS incubated for 72 hrs by MTT assay
# Type: functional, cell-based
# Condition Description: NCI-H1703, 72 h
Property Name: IC50 (nM)

Examples from the recorded data:
CN1CC[C@@H](Oc2ccc(Cl)c(-c3nc4c(o3)C(=O)c3ccccc3C4=O)c2)C1 113
CN1CC[C@@H](Oc2ccc(Cl)c(-c3nc4c(o3)C(=O)c3ccccc3C4=O)c2F)C1 173

(1) CN1CC[C@@H](Oc2ccc(F)c(-c3nc4c(o3)C(=O)c3ccccc3C4=O)c2Cl)C1
(2) O=C1c2ccccc2C(=O)c2oc(-c3cccnc3)nc21
Smaller IC50 value? Options are 1 and 2 I would appreciate it if you answered with the label of your choice.
2

----------
# Measurement Description: Aqueous solubility of the compound measured after 24 hr by […] LC-MS/MS analysis
# Format: physicochemical
# Condition Description: buffer
Property Name: solubility

CN1CC[C@@H](Oc2ccc(F)c(-c3nc4c(o3)C(=O)c3ccccc3C4=O)c2Cl)C1 Soluble
CN1CC[C@@H](Oc2ccc(Cl)c(-c3nc4c(o3)C(=O)c3ccccc3C4=O)c2)C1 Soluble
N#Cc1ccc(-c2nc3c(o2)C(=O)c2ccccc2C3=O)cc1 Insoluble
O=C1c2ccccc2C(=O)c2oc(-c3c(F)ccc(F)c3Cl)nc21 Insoluble

For the next question, use this compound.
Would you kindly share the measured solubility for CN1CC[C@@H](Oc2cc(-c3nc4c(o3)C(=O)c3ccccc3C4=O)ccc2Cl)C1 ?
Soluble

----------
# Tested Target: Ubiquitin thioesterase OTUB1 (Homo sapiens)
# Measurement Description: Inhibition of N-terminal His-6 tagged OTUB1 (40 to 271 residues) (unknown origin) expressed in Escherichia coli BL21 (DE3) cells at 10 nM using Ub-Rho measured after 0.5 to 3 hrs by fluorescence based Plate reader method relative to control
# Condition Description: time 0.5-3 hrs, values are per cent of control
Property Name: residual activity (%)

Examples from the recorded data:
O=C1c2ccccc2C(=O)c2oc(-c3c(Cl)cccc3Cl)nc21 52.4
CN1CCN(CCOc2ccc(F)c(-c3nc4c(o3)C(=O)c3ccccc3C4=O)c2Cl)CC1 17
O=C1c2ccccc2C(=O)c2[nH]c(-c3ccccc3)nc21 84.3
CN1CC[C@H](Oc2cccc(-c3nc4c(o3)C(=O)c3ccccc3C4=O)c2)C1 75.6
Cc1ccccc1-c1nc2c(o1)C(=O)c1ccccc1C2=O 66.4

(I) O=C1c2ccccc2C(=O)c2oc(-c3c(F)ccc(F)c3F)nc21
(II) CN1CCN(CCOc2ccc(Cl)c(-c3nc4c(o3)C(=O)c3ccccc3C4=O)c2F)CC1
(III) COc1ccc(Cl)c(-c2nc3c(o2)C(=O)c2ccccc2C3=O)c1
(IV) O=C1c2ccccc2C(=O)c2oc(-c3cccc(C(F)(F)F)c3)nc21
Please rank these molecules by residual activity in descending order. List the labels in the requested order.
III, I, IV, II
(III: 63.2%, I: 40.7%, IV: 23.1%, II: 14.4%)

(A) COc1cc(Cl)cc(-c2nc3c(o2)C(=O)c2ccccc2C3=O)c1
(B) O=C1c2ccccc2C(=O)c2oc(-c3ccc(F)cc3Cl)nc21
(C) CN1CC[C@@H](Oc2ccc(Cl)c(-c3nc4c(o3)C(=O)c3ccccc3C4=O)c2F)C1
Give the ascending ranking of the items by reported residual activity. List the labels in the requested order.
C, B, A

(1) O=C1c2ccccc2C(=O)c2oc(-c3cc(Cl)ccc3Cl)nc21
(2) CN1CCN(CCOc2cc(Cl)cc(-c3nc4c(o3)C(=O)c3ccccc3C4=O)c2)CC1
Recorded residual activity values differ for 1 and 2 ; which one is higher? I would appreciate it if you answered with the label of your choice.
2

----------
# Tested Target: UniProt P40818
# Sequence (P40818 whole entry): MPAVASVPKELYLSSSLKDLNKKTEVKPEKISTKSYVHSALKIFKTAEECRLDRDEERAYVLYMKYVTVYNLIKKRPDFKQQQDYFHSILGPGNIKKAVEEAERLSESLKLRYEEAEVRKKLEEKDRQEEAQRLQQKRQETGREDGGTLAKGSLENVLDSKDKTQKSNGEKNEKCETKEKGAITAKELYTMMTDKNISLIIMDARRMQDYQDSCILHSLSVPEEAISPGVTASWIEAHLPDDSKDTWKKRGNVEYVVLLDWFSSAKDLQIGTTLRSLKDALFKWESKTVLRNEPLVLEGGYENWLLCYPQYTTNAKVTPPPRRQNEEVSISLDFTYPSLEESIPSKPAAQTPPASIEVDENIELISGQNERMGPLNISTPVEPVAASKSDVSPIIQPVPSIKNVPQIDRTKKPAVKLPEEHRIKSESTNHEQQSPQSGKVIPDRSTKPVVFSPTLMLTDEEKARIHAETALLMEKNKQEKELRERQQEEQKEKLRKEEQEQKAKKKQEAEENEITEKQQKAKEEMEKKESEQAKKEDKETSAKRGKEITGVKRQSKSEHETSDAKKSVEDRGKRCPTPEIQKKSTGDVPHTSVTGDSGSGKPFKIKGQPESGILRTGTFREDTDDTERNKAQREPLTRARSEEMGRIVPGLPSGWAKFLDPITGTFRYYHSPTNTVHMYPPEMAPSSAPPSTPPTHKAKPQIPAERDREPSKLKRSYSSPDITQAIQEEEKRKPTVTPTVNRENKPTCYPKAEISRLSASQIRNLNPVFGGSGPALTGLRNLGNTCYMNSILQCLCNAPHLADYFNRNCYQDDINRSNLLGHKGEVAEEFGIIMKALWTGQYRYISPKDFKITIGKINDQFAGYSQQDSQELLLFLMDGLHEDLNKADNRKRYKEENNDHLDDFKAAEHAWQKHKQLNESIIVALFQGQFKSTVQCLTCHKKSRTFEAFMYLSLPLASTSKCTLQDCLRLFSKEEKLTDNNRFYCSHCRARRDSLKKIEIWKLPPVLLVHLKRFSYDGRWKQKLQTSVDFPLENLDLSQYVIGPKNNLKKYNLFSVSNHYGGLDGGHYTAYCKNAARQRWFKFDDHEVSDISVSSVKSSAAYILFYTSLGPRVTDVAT
pIC50: −log10 of the molar value.
Property Name: pIC50

CN1CC[C@@H](Oc2ccc(Cl)c(-c3nc4c(o3)C(=O)c3ccccc3C4=O)c2F)C1 8.70

(P) O=C1c2ccccc2C(=O)c2oc(-c3cccnc3)nc21
(Q) CN1CC[C@@H](Oc2ccc(Cl)c(-c3nc4c(o3)C(=O)c3ccccc3C4=O)c2)C1
Smaller pIC50 value? Options are P and Q I would appreciate it if you answered with the label of your choice.
P
